Cited source: PubChem BioAssay

# method: GLP1 release stimulators, primary, NCI-H716, NPC library (AID 1117341); further: reference of the scale not given here
# condition.description: NCI-H716 cells, at 10 µM, stronger effect = higher value
Please provide measured GLP1 secretion stimulation for the entries that follow.
One number for each entry, in %.

> print(dat)
                               smiles.input              property.label  endpoint.result
1           c1ccc(CN(CC2=NCCN2)c2ccccc2)cc1  GLP1 secretion stimulation             -1.9
2  Cc1cc2nc3c(=O)[nH]c(=O)nc-3n(C[C@H](O)[C@H](O)[C@H](O)CO)c2cc1C  GLP1 secretion stimulation             -0.4
3          CCN(CC)CCNC(=O)c1cc(Cl)c(N)cc1OC  GLP1 secretion stimulation              0.3
4  O=C(COc1ccc(Cl)cc1)N1CCN(Cc2ccc3c(c2)OCO3)CC1  GLP1 secretion stimulation              0.1

API: the following record is the query input.
Qu. Identify the reported GLP1 secretion stimulation for the following entry. NC(=O)NO
Ans. -2

* * *

# method: HCT116 colon cancer cell growth inhibition, primary screen, CellTiter-Glo luminescence, NPC library (AID 1117342)
# condition.description: at 20 µM (top of the series)
property.label: inhibition of viability (%)
Give bare numbers, in %.

Please review the entries below; each comes with its answer.
> print(dat)
                               smiles.input  output.unit  endpoint.result
1  CCC[C@H](N[C@@H](C)C(=O)N1[C@H](C(=O)O)C[C@@H]2CCCC[C@@H]21)C(=O)OCC            %             18.1
2  O=C(Nc1cccc(C2=NCCN2)c1)Nc1cccc(C2=NCCN2)c1            %             70.7
3    O=C1CCc2cc(OCCCCc3nnnn3C3CCCCC3)ccc2N1            %            -0.27
4             COc1ccc2[nH]cc(CCNC(C)=O)c2c1            %             -6.9

Qu. Identify the reported inhibition of viability for the following entry. O=C(CCCCC(=O)Nc1c(I)cc(I)c(C(=O)O)c1I)Nc1c(I)cc(I)c(C(=O)O)c1I
Ans. -1.4

* * *

# method: growth inhibition of GSK3B-pretreated HCT116 cells – cell-based, CellTiter-Glo, 0.2 to 20 µM (AID 1117336)
# condition.description: HCT116 viability after GSK3B inhibitor, at 20 µM, stronger effect = higher value
Calls of active or inactive are those of the source.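 The calls were made as follows: active = compounds lowering colon cancer cell viability after pretreatment blocking the GSK3B kinase; inactive = the rest.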
Please provide measured viability decrease for the entries that follow.

> print(dat)
                                    molecule      property.label    endpoint.result
 1                      Nc1ccc(C(=O)O)c(O)c1  viability decrease  -46.6% (inactive)
 2  CN1CCN2c3ccccc3Cc3ccccc3C2C1 (stereo not drawn)  viability decrease    6.5% (inactive)
 3                      CC(C)NNC(=O)c1ccncc1  viability decrease  -3.15% (inactive)
 4  C=Cc1c(C)c2cc3[nH]c(cc4nc(cc5nc(cc1[nH]2)C(C)=C5CCC(=O)O)C(CCC(=O)O)=C4C)c(C)c3C=C  viability decrease   37.8% (inactive)
 5                                  CC(=O)NO  viability decrease   30.9% (inactive)
 6           Cc1cc(-c2ccccc2)nnc1NCCN1CCOCC1  viability decrease  -42.6% (inactive)
 7            CN1CCN(C(c2ccccc2)c2ccccc2)CC1  viability decrease    -48% (inactive)
 8      Cc1ccccc1OCC(O)CO (stereo not drawn)  viability decrease  -10.2% (inactive)
 9  CN1CCOC(c2ccccc2)c2ccccc2C1 (stereo not drawn)  viability decrease  -52.9% (inactive)
10        COc1cc(-c2ccc(=O)[nH]n2)ccc1OC(F)F  viability decrease  -6.05% (inactive)

For each entry beneath this line, provide reported viability decrease.
1. Cc1onc(-c2ccccc2Cl)c1C(=O)N[C@@H]1C(=O)N2[C@@H]1SC(C)(C)[C@@H]2C(=O)O
2. CCc1c(C)[nH]c2c1C(=O)C(CN1CCOCC1)CC2 (stereo not drawn)
3. NS(=O)(=O)Cc1noc2ccccc12

Ans.
1: -27.7% (inactive); 2: 2.2% (inactive); 3: -1.75% (inactive)

* * *

# assay.target: ATP-dependent translocase ABCB1 (Homo sapiens) (UniProt P08183)
# Sequence (P08183 whole entry, looked up): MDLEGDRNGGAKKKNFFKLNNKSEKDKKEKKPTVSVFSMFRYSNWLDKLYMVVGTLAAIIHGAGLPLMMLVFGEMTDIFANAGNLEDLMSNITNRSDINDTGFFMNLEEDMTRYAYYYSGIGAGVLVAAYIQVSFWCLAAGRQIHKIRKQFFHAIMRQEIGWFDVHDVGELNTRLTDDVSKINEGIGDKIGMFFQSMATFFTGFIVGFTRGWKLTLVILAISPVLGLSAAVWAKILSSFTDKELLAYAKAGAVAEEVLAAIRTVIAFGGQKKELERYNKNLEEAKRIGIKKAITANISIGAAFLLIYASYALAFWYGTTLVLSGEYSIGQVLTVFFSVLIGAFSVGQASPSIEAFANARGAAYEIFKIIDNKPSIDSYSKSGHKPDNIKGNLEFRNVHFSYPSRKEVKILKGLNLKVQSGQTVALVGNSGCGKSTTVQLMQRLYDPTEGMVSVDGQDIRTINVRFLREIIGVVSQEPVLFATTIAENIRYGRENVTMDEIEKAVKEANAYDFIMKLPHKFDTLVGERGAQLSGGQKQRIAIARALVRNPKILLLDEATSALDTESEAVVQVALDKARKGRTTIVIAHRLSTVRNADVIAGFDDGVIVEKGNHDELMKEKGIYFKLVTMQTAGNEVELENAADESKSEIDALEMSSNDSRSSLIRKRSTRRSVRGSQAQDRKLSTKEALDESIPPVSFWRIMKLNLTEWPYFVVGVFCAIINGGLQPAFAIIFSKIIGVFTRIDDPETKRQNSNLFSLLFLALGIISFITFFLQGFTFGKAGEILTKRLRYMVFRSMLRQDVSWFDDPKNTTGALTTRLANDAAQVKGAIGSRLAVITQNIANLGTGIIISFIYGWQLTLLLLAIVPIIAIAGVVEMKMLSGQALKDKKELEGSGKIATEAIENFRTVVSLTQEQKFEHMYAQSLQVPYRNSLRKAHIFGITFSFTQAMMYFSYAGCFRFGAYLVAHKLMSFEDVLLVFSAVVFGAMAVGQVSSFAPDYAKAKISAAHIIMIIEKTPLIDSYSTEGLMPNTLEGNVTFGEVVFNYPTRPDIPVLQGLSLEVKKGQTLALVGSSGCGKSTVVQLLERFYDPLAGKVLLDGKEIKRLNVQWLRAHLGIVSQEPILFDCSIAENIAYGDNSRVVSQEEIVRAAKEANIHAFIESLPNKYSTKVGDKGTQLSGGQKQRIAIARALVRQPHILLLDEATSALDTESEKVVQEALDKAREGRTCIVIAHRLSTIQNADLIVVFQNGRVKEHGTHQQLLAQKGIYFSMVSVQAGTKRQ
# method: P-glycoprotein substrate transport blockade – cell-based (AID 377)
# condition.description: MDR1-expressing cells, fluorescent substrate accumulation slope; stronger effect = higher value; concentration not given here
Records with an inconclusive call do not appear.
Mark t for reported fluorescence slope change of 30% or greater; mark f for anything smaller.

A selection of reference data follows.
> print(dat)
                                   molecule  assigned.label
1  C[N+]12CCC(CC1)C(OC(=O)C(O)(c1ccccc1)c1ccccc1)C2 (stereo unspecified)               f
2  CC(=O)OCC(=O)[C@@]1(O)[C@H](C)C[C@H]2[C@@H]3CCC4=CC(=O)C=C[C@]4(C)[C@@]3(F)[C@@H](O)C[C@@]21C               t
3   COc1ccccc1OCC(O)CO (stereo unspecified)               f
4  CCCCC(CC)CN=C(N)NC(N)=NCCCCCCN=C(N)NC(N)=NCC(CC)CCCC (stereo unspecified)               t
5  CC(=O)Nc1ccc(OCC(O)CNC(C)C)cc1 (stereo unspecified)               t
6  CCOC(=O)C1=C(C)NC(C)=C(C(=O)OC)C1c1cccc(Cl)c1Cl (stereo unspecified)               f
7  O=C(O)c1ccccc1C(=O)Nc1ccc(S(=O)(=O)Nc2nccs2)cc1               t
8         COc1cnc(NS(=O)(=O)c2ccc(N)cc2)nc1               f

Qu. Assess whether reported fluorescence slope change for CCN(CC)CCNC(=O)c1cc(S(C)(=O)=O)ccc1OC sits at 30% or higher.
Ans. t

* * *

# method: yeast 75Q aggregation reduction – 75Q-TubU reporter (AID 1593)
# condition.description: Yeast 75Q polyglutamine aggregation reporter
Please provide measured score for the entries that follow.

For each entry beneath this line, provide reported score.
1. CC(=O)Oc1ccc(C(c2ccc(OC(C)=O)cc2)c2ccccn2)cc1
2. CC(C)(C)CC(C)(C)c1ccc(O)c(Cc2ccc(Cl)cc2Cl)c1
3. CC(=O)OCC1=C(C(=O)O)N2C(=O)[C@@H](NC(=O)CSc3ccncc3)[C@H]2SC1

Ans.
1. 1.05
2. -0.61
3. 1.04

* * *

Please provide measured inhibition for the entries that follow.
# assay.target: Single-stranded DNA-binding protein (Escherichia coli (strain K12))
# method: SSB-ssDNA binding inhibitors – biochemical, fluorescence polarization, NIH Clinical Collection, counter-screen for HCV NS3 helicase inhibitor project (AID 743271)
# condition.description: E. coli SSB-DNA binding, stronger effect = higher value, concentration not given here
Give bare numbers, in %.

> print(dat)
                               smiles.input  property.label  output.unit  endpoint.result
1    OCCOCCN1CCN(C2=Nc3ccccc3Sc3ccccc32)CC1      inhibition            %             1.44
2          Nc1nc2c(ncn2COC(CO)CO)c(=O)[nH]1      inhibition            %            -2.76
3         CCCN1CCCC[C@H]1C(=O)Nc1c(C)cccc1C      inhibition            %            -2.76
4   CCOC(=O)c1ncn2c1CN(C)C(=O)c1cc(F)ccc1-2      inhibition            %             -0.1
5  Cc1c(O)cccc1C(=O)N[C@@H](CSc1ccccc1)[C@H](O)CN1C[C@H]2CCCC[C@H]2C[C@H]1C(=O)NC(C)(C)C      inhibition            %             2.98

API: the following record is the query input.
Qu. Identify the reported inhibition for the following entry. CCOc1cc(CC(=O)N[C@@H](CC(C)C)c2ccccc2N2CCCCC2)ccc1C(=O)O
Ans. 2.21

* * *

# method: growth inhibition of GSK3B-pretreated HCT116 cells – cell-based, CellTiter-Glo, 0.2 to 20 µM (AID 1117336)
# condition.description: HCT116 viability after GSK3B inhibitor, at 20 µM
Activity calls are given as the source filed them.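 Rule for the calls: active = compounds lowering colon cancer cell viability after pretreatment blocking the GSK3B kinase; inactive = the rest.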
Response enum: Y = active, N = inactive

> print(dat)
                          compound  assigned.label
1   CCCOc1ccc2nc(NC(=O)OC)[nH]c2c1               N
2        Nc1cc(-c2ccncc2)c[nH]c1=O               N
3  Cc1cc(C(C)(C)C)cc(C)c1CC1=NCCN1               N

Qu. # fetch the recorded call for CC(C)NCC(O)COc1ccc(CCOCC2CC2)cc1 (stereo unspecified) here
Ans. N

Qu. # fetch the recorded call for CCOc1ccc2nc3cc(N)ccc3c(N)c2c1 here
Ans. Y

Qu. # fetch the recorded call for CCCOc1ccccc1-c1nc2n[nH]nc2c(=O)[nH]1 here
Ans. N
